Assay: Plasma pharmacokinetics in rats after i.v. and i.g. dosing (UPLC-FLR)
Type: in vivo, Sprague Dawley rats
Details: both sexes, Sprague Dawley, rat, plasma, iv, 12 mg/kg, 12 mg/kg i.v., mean ± SD, n = 6

# molecule, Tmax
measured = [
    ("CC[C@@]12CC(C(=O)OC)=C3Nc4cc5c(cc4[C@@]34CCN(C[C@H]3O[C@H]31)[C@@H]24)[C@@H]1C(O5)[C@@H](O)[C@@]2(CC)CC(C(=O)OC)=C3Nc4cc(OC)ccc4[C@@]34CCN1[C@@H]24 (stereo partly shown) [10-dehydroxyl-12-demethoxy-conophylline, 10-Dehydroxyl-12-demethoxy-conophylline]", "2 min"),
]

====

Test: Plasma pharmacokinetics in rats after i.v. and i.g. dosing (UPLC-FLR)
Type: in vivo, Sprague Dawley rats
Conditions: both sexes, Sprague Dawley, rat, plasma, iv, 12 mg/kg, i.v. dosing at 4, 8 and 12 mg/kg, read-out: t1/2β of intravenous administration
Procedure: Sprague Dawley rats (half male and female) with a body mass 180–220 g were provided by the Laboratory Animal Center of Medical University of Anhui (Hefei, China), Certificate number: SCXK(wan) 2015-002. […] The rat intravenous doses were determined as 4, 8, and 12 mg/kg, and the intragastric administration dose was 20 mg/kg. […]

# compound, half-life
data = [
    ("CC[C@@]12CC(C(=O)OC)=C3Nc4cc5c(cc4[C@@]34CCN(C[C@H]3O[C@H]31)[C@@H]24)[C@@H]1C(O5)[C@@H](O)[C@@]2(CC)CC(C(=O)OC)=C3Nc4cc(OC)ccc4[C@@]34CCN1[C@@H]24 (stereo partly shown) [10-dehydroxyl-12-demethoxy-conophylline, 10-Dehydroxyl-12-demethoxy-conophylline]", "~1.15 h"),
]

====

Assay: Plasma pharmacokinetics in rats after i.v. and i.g. dosing (UPLC-FLR)
Type: in vivo, Sprague Dawley rats
Conditions: both sexes, Sprague Dawley, plasma, iv; rat, 12 mg/kg i.v.

# compound, unit, AUC(0-inf)
records = [
    ("CC[C@@]12CC(C(=O)OC)=C3Nc4cc5c(cc4[C@@]34CCN(C[C@H]3O[C@H]31)[C@@H]24)[C@@H]1C(O5)[C@@H](O)[C@@]2(CC)CC(C(=O)OC)=C3Nc4cc(OC)ccc4[C@@]34CCN1[C@@H]24 (stereo partly shown) [10-dehydroxyl-12-demethoxy-conophylline, 10-Dehydroxyl-12-demethoxy-conophylline]", "ng·h/mL", 5090),
]

====

Assay: Plasma pharmacokinetics in rats after i.v. and i.g. dosing (UPLC-FLR)
Type: in vivo, Sprague Dawley rats
Details: both sexes, Sprague Dawley, rat, plasma, iv, 12 mg/kg, 12 mg/kg i.v., mean ± SD, n = 6, read-out: t1/2β

# molecule, half-life, h
measured = [
    ("CC[C@@]12CC(C(=O)OC)=C3Nc4cc5c(cc4[C@@]34CCN(C[C@H]3O[C@H]31)[C@@H]24)[C@@H]1C(O5)[C@@H](O)[C@@]2(CC)CC(C(=O)OC)=C3Nc4cc(OC)ccc4[C@@]34CCN1[C@@H]24 (stereo partly shown) [10-dehydroxyl-12-demethoxy-conophylline, 10-Dehydroxyl-12-demethoxy-conophylline]", 1.16),
]

====

Assay: Plasma pharmacokinetics in rats after i.v. and i.g. dosing (UPLC-FLR)
Assay type: in vivo, Sprague Dawley rats
Settings: both sexes, Sprague Dawley, plasma, oral; rat, 20 mg/kg i.g. versus i.v.; read-out: absolute oral bioavailability

# compound, bioavailability [%]
data = [
    ("CC[C@@]12CC(C(=O)OC)=C3Nc4cc5c(cc4[C@@]34CCN(C[C@H]3O[C@H]31)[C@@H]24)[C@@H]1C(O5)[C@@H](O)[C@@]2(CC)CC(C(=O)OC)=C3Nc4cc(OC)ccc4[C@@]34CCN1[C@@H]24 (stereo partly shown) [10-dehydroxyl-12-demethoxy-conophylline, 10-Dehydroxyl-12-demethoxy-conophylline]", 15.8),
]
